Below, each entry is listed with its recorded pKd.
Molecular target: UbcH5B (UniProt P62837 1-147)
Test: SPR
Schema: pKd number; meaning minus log10 of the concentration expressed in molar units.

See these solved cases before continuing.
Problem: Could you share which pKd value was measured for GST-CBL354–435 WT (domain or fragment) EPTPQDHIKVTQEQYELYCEMGSTFQLCKICAENDKDVKIEPCGHLMCTSCLTSWQESEGQGCPFCRCEIKGTEPIVVDPFD ?
Result: 4.38

Problem: Would you mind doing GST-CBL354–435 pY371 (domain or fragment, phosphotyrosine at 371) EPTPQDHIKVTQEQYELYCEMGSTFQLCKICAENDKDVKIEPCGHLMCTSCLTSWQESEGQGCPFCRCEIKGTEPIVVDPFD as well?
Result: 4.70

Problem: Check GST-CBL354–435 Y368F pY371 (domain or fragment, phosphotyrosine at 371) EPTPQDHIKVTQEQFELYCEMGSTFQLCKICAENDKDVKIEPCGHLMCTSCLTSWQESEGQGCPFCRCEIKGTEPIVVDPFD too.
Result: 4.74

Please examine the following record next.
Problem: What does the record list as pKd for GST-CBL354–435 Y368F (domain or fragment) EPTPQDHIKVTQEQFELYCEMGSTFQLCKICAENDKDVKIEPCGHLMCTSCLTSWQESEGQGCPFCRCEIKGTEPIVVDPFD ?
Result: 4.42
